Test system: SN12C
assay-protocol: NCI-60 SRB screening (one-dose and five-dose)
Assay type: cell-based, human
experimental-parameters: 10 μM, 48 h
parameter: Growth Percent (%)
Give bare numbers, in %.

Answered cases to consult:
- compound: "COC(=O)[C@]12CC[C@@H](C(=O)/C=C/c3cccnc3)[C@@H]1[C@H]1CC[C@@H]3[C@@]4(C)C/C(=C\\c5cccnc5)C(=O)C(C)(C)[C@@H]4CC[C@@]3(C)[C@]1(C)CC2"
  reported: "−77.80"
- compound: "COC(=O)[C@]12CC[C@@H](C(C)=O)[C@@H]1[C@H]1CC[C@@H]3[C@@]4(C)C/C(=C\\c5cccnc5)C(=O)C(C)(C)[C@@H]4CC[C@@]3(C)[C@]1(C)CC2"
  reported: 57.75
- compound: "C[C@H]1[C@@H]2[C@H]3CC[C@@H]4[C@@]5(C)CC[C@H](O)C(C)(C)[C@@H]5CC[C@@]4(C)[C@]3(C)CC[C@]23CO[C@@]1(C)[C@@H](C(=O)/C=C/c1ccco1)C3"
  reported: 100.53
- compound: "C[C@H]1[C@@H]2[C@H]3CC[C@@H]4[C@@]5(C)C/C(=C\\c6cccnc6)C(=O)C(C)(C)[C@@H]5CC[C@@]4(C)[C@]3(C)CC[C@]23CO[C@@]1(C)[C@@H](C(=O)/C=C/c1cccnc1)C3"
  reported: "−17.67"
- compound: "C[C@H]1[C@@H]2[C@H]3CC[C@@H]4[C@@]5(C)CC[C@H](O)C(C)(C)[C@@H]5CC[C@@]4(C)[C@]3(C)CC[C@]23CO[C@@]1(C)C(C(=O)/C=C/c1cccnc1)C3 (stereo partly shown)"
  reported: 62.68
- compound: "CC(=O)O[C@H]1CC[C@]2(C)[C@H]3CC[C@@H]4[C@H]5[C@H](C)[C@@]6(C)OC[C@]5(CC[C@@]4(C)[C@]3(C)CC[C@H]2C1(C)C)CC6C(C)=O (stereo partly shown)"
  reported: 88.79

In the following, a different compound is considered.
Growth Percent for "CC(=O)[C@H]1C[C@]23CC[C@]4(C)[C@H](CC[C@@H]5[C@@]6(C)CCC(=O)C(C)(C)[C@@H]6CC[C@]54C)[C@H]2[C@H](C)[C@@]1(C)OC3" is 87.69
